Assay: activators reversing PD-1 mediated T-cell inhibition, primary screen, luminescence, primary human CD4 T cells, PD-L1 beads (AID 2316);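 note: 0% = median vehicle wells and 100% = positive control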
Conditions: CellTiter-Glo 96 h, active compounds read high
The campaign covered roughly 29,000 compounds. Fewer than 10 were called active. The list is a sample of the results.
assay.endpoint: activation (%)
Just the number in %, nothing appended.

In the examples that follow, each entry is paired with its recorded activation.
[
  {
    "molecule": "C[C@@H]1CCCCO[C@H](CN(C)S(=O)(=O)c2cccs2)[C@@H](C)CN([C@H](C)CO)C(=O)c2cc(NC(=O)Nc3ccccc3)ccc2O1",
    "unit.annotation": "%",
    "activation": -1.94
  },
  {
    "molecule": "C[C@@H]1CCCCO[C@@H](CN(C)C(=O)NC2CCCCC2)[C@@H](C)CN([C@H](C)CO)C(=O)c2cc(NC(=O)CCCCCC(=O)Nc3ccccc3N)ccc2O1",
    "unit.annotation": "%",
    "activation": 0.709
  },
  {
    "molecule": "COc1ccc(N2C(=O)CC(SCC(=O)Nc3ccccc3F)C2=O)cc1 (configuration not stated)",
    "unit.annotation": "%",
    "activation": 1.75
  },
  {
    "molecule": "N#Cc1cc2c(nc1SCC(=O)Nc1ccccc1C(F)(F)F)CCCCC2",
    "unit.annotation": "%",
    "activation": 1.79
  },
  {
    "molecule": "C[C@@H]1CN([C@@H](C)CO)C(=O)c2cc(NS(=O)(=O)c3ccc(Cl)cc3)ccc2O[C@H]1CN(C)S(=O)(=O)c1cn(C)cn1",
    "unit.annotation": "%",
    "activation": -1.79
  },
  {
    "molecule": "Cc1noc(C)c1NC(=O)Nc1ccc2c(c1)C(=O)N([C@H](C)CO)C[C@H](C)[C@@H](CN(C)C(=O)Nc1ccccc1)O2",
    "unit.annotation": "%",
    "activation": 1.04
  },
  {
    "molecule": "CCOC(=O)CCSc1nnc2c3ccccc3n(C)c2n1",
    "unit.annotation": "%",
    "activation": -0.845
  },
  {
    "molecule": "C[C@H](CO)N1C[C@H](C)[C@@H](CN(C)Cc2ccccc2)Oc2c(NC(=O)CCCCCC(=O)Nc3ccccc3N)cccc2C1=O",
    "unit.annotation": "%",
    "activation": -2.46
  },
  {
    "molecule": "O=C1c2ccccc2S(=O)c2ccccc2S(=O)(=O)N1Cc1ccccc1 (configuration not stated)",
    "unit.annotation": "%",
    "activation": -5.99
  },
  {
    "molecule": "CCCCCC(O)c1cccc(OCc2ccc3ccccc3n2)c1 (configuration not stated)",
    "unit.annotation": "%",
    "activation": 5.54
  }
]

Measured activation of `C[C@H]1CN([C@@H](C)CO)C(=O)c2cc(NS(=O)(=O)c3cccs3)ccc2O[C@@H]1CN(C)C(=O)Nc1cccc2ccccc12` : -0.392

Measured activation of `CCOc1ccc2nc(Nc3nc(C)c(Cc4ccc(C)cc4)c(=O)[nH]3)nc(C)c2c1` : -0.875

Measured activation of `C[C@@H]1CN([C@@H](C)CO)C(=O)c2cc(NC(=O)Cc3ccccc3)ccc2O[C@H]1CN(C)Cc1ccc(Cl)c(Cl)c1` : -0.482

Measured activation of `CN1CCN(C(=O)CCc2nc(-c3ccc(Cl)cc3)no2)CC1` : -0.127

Numbers sourced from PubChem BioAssay AID2316.
